# System: LCLC-97TM1
# test protocol: relative viability (nuclei count vs DMSO), 5 days (fraction); higher = more cells survive
# measurement context: first compound 0.1 µM
measured property: relative viability

[
  {
    "compound": "NC(=O)Nc1cc(-c2cccc(F)c2)sc1C(=O)N[C@H]1CCCNC1 [AZD7762] + O=C(c1cc(Cc2n[nH]c(=O)c3ccccc23)ccc1F)N1CCN(C(=O)C2CC2)CC1 [Olaparib] (partner 8 µM)",
    "target under test": "LCLC-97TM1",
    "measured property": "relative viability",
    "measured number": 0.438
  },
  {
    "compound": "NC(=O)Nc1cc(-c2cccc(F)c2)sc1C(=O)N[C@H]1CCCNC1 [AZD7762] + C[C@@H](Oc1cc(-c2cnn(C3CCNCC3)c2)cnc1N)c1c(Cl)ccc(F)c1Cl [Crizotinib] (partner 1 µM)",
    "target under test": "LCLC-97TM1",
    "measured property": "relative viability",
    "measured number": 0.317
  },
  {
    "compound": "NC(=O)Nc1cc(-c2cccc(F)c2)sc1C(=O)N[C@H]1CCCNC1 [AZD7762] + Cc1nc(Nc2ncc(C(=O)Nc3c(C)cccc3Cl)s2)cc(N2CCN(CCO)CC2)n1 [Dasatinib] (partner 0.075 µM)",
    "target under test": "LCLC-97TM1",
    "measured property": "relative viability",
    "measured number": 0.778
  },
  {
    "compound": "NC(=O)Nc1cc(-c2cccc(F)c2)sc1C(=O)N[C@H]1CCCNC1 [AZD7762] + CC(=O)c1c(C)c2cnc(Nc3ccc(N4CCNCC4)cn3)nc2n(C2CCCC2)c1=O [Palbociclib] (partner 0.5 µM)",
    "target under test": "LCLC-97TM1",
    "measured property": "relative viability",
    "measured number": 0.253
  },
  {
    "compound": "NC(=O)Nc1cc(-c2cccc(F)c2)sc1C(=O)N[C@H]1CCCNC1 [AZD7762] + N=C(N)NC(=N)NCCc1ccccc1 [Phenformin] (partner 250 µM)",
    "target under test": "LCLC-97TM1",
    "measured property": "relative viability",
    "measured number": 0.479
  },
  {
    "compound": "NC(=O)Nc1cc(-c2cccc(F)c2)sc1C(=O)N[C@H]1CCCNC1 [AZD7762] + COc1cc2c(Oc3ccc(NC(=O)C4(C(=O)Nc5ccc(F)cc5)CC4)cc3F)ccnc2cc1OCCCN1CCOCC1 [Foretinib] (partner 0.25 µM)",
    "target under test": "LCLC-97TM1",
    "measured property": "relative viability",
    "measured number": 1.02
  },
  {
    "compound": "NC(=O)Nc1cc(-c2cccc(F)c2)sc1C(=O)N[C@H]1CCCNC1 [AZD7762] + CC(C)C[C@H](NC(=O)[C@H](Cc1ccccc1)NC(=O)c1cnccn1)B(O)O [Bortezomib] (partner 0.002 µM)",
    "target under test": "LCLC-97TM1",
    "measured property": "relative viability",
    "measured number": 0.737
  }
]

---

# Tested on: NCI-H2087
# test protocol: relative viability (nuclei count vs DMSO), 5 days (fraction); higher = more cells survive
# measurement context: first compound 0.253 µM

[
  {
    "compound": "Oc1nc(-c2ccc(C(F)(F)F)cc2)nc2c1CSCC2 [XAV939] + Nc1nc2[nH]cc(CCc3ccc(C(=O)N[C@@H](CCC(=O)O)C(=O)O)cc3)c2c(=O)[nH]1 [Pemetrexed] (partner 0.2 µM)",
    "target under test": "NCI-H2087",
    "relative viability": 0.636
  },
  {
    "compound": "Oc1nc(-c2ccc(C(F)(F)F)cc2)nc2c1CSCC2 [XAV939] + NC(=O)Nc1cc(-c2cccc(F)c2)sc1C(=O)N[C@H]1CCCNC1 [AZD7762] (partner 0.2 µM)",
    "target under test": "NCI-H2087",
    "relative viability": 1.2
  },
  {
    "compound": "C=C1C(=O)O[C@@H](CCCCCCCC)[C@@H]1C(=O)O [C-75] + Nc1ncn([C@H]2C[C@H](O)[C@@H](CO)O2)c(=O)n1 [Decitabine] (partner 2 µM)",
    "target under test": "NCI-H2087",
    "relative viability": 0.269
  }
]

---

# System: NCI-H460
# test protocol: relative viability (nuclei count vs DMSO), 5 days (fraction); higher = more cells survive
# measurement context: first compound 2.53 µM
The reader will find reported relative viability values listed item by item below.

[
  {
    "compound": "Oc1nc(-c2ccc(C(F)(F)F)cc2)nc2c1CSCC2 [XAV939] + Cc1nc(Nc2ncc(C(=O)Nc3c(C)cccc3Cl)s2)cc(N2CCN(CCO)CC2)n1 [Dasatinib] (partner 0.075 µM)",
    "relative viability": 0.467
  },
  {
    "compound": "Oc1nc(-c2ccc(C(F)(F)F)cc2)nc2c1CSCC2 [XAV939] + CC1(C)CCC(c2ccc(Cl)cc2)=C(CN2CCN(c3ccc(C(=O)NS(=O)(=O)c4ccc(N[C@H](CCN5CCOCC5)CSc5ccccc5)c(S(=O)(=O)C(F)(F)F)c4)cc3)CC2)C1 [Navitoclax] (partner 0.5 µM)",
    "relative viability": 1.16
  },
  {
    "compound": "C=C1C(=O)O[C@@H](CCCCCCCC)[C@@H]1C(=O)O [C-75] + CC(=O)Nc1cccc(-n2c(=O)n(C3CC3)c(=O)c3c(Nc4ccc(I)cc4F)n(C)c(=O)c(C)c32)c1 [Trametinib] (partner 0.02 µM)",
    "relative viability": 0.104
  },
  {
    "compound": "Oc1nc(-c2ccc(C(F)(F)F)cc2)nc2c1CSCC2 [XAV939] + C[C@@H](Oc1cc(-c2cnn(C3CCNCC3)c2)cnc1N)c1c(Cl)ccc(F)c1Cl [Crizotinib] (partner 1 µM)",
    "relative viability": 0.874
  },
  {
    "compound": "C=C1C(=O)O[C@@H](CCCCCCCC)[C@@H]1C(=O)O [C-75] + CC(=O)c1c(C)c2cnc(Nc3ccc(N4CCNCC4)cn3)nc2n(C2CCCC2)c1=O [Palbociclib] (partner 0.5 µM)",
    "relative viability": 0.132
  },
  {
    "compound": "Oc1nc(-c2ccc(C(F)(F)F)cc2)nc2c1CSCC2 [XAV939] + Cc1nc(NC(=O)N2CCC[C@H]2C(N)=O)sc1-c1ccnc(C(C)(C)C(F)(F)F)c1 [Alpelisib] (partner 2 µM)",
    "relative viability": 0.359
  },
  {
    "compound": "Oc1nc(-c2ccc(C(F)(F)F)cc2)nc2c1CSCC2 [XAV939] + O=C(CCCCCCC(=O)Nc1ccccc1)NO [Vorinostat] (partner 1 µM)",
    "relative viability": 0.433
  },
  {
    "compound": "C=C1C(=O)O[C@@H](CCCCCCCC)[C@@H]1C(=O)O [C-75] + O=C(CCCCCCC(=O)Nc1ccccc1)NO [Vorinostat] (partner 1 µM)",
    "relative viability": 0.58
  },
  {
    "compound": "Oc1nc(-c2ccc(C(F)(F)F)cc2)nc2c1CSCC2 [XAV939] + N=C(N)NC(=N)NCCc1ccccc1 [Phenformin] (partner 250 µM)",
    "relative viability": 0.502
  }
]

---

# Test system: LOU-NH91
# test protocol: relative viability (nuclei count vs DMSO), 5 days (fraction); higher = more cells survive
# measurement context: first compound 0.04 µM
relative viability vs 0.6: less than gives fulfilled; not less than gives not fulfilled.

[
  {
    "compound": "O=C(O)c1ccc(-c2c[nH]c3ncc(-c4ccccc4)cc23)cc1C1CCCC1 + Cc1nc(NC(=O)N2CCC[C@H]2C(N)=O)sc1-c1ccnc(C(C)(C)C(F)(F)F)c1 [Alpelisib] (partner 2 µM)",
    "target under test": "LOU-NH91",
    "class name": "not fulfilled"
  },
  {
    "compound": "O=C(O)c1ccc(-c2c[nH]c3ncc(-c4ccccc4)cc23)cc1C1CCCC1 + O=C(c1cc(Cc2n[nH]c(=O)c3ccccc23)ccc1F)N1CCN(C(=O)C2CC2)CC1 [Olaparib] (partner 8 µM)",
    "target under test": "LOU-NH91",
    "class name": "not fulfilled"
  },
  {
    "compound": "O=C(O)c1ccc(-c2c[nH]c3ncc(-c4ccccc4)cc23)cc1C1CCCC1 + CS(=O)(=O)CCNCc1ccc(-c2ccc3ncnc(Nc4ccc(OCc5cccc(F)c5)c(Cl)c4)c3c2)o1 [Lapatinib] (partner 2 µM)",
    "target under test": "LOU-NH91",
    "class name": "not fulfilled"
  },
  {
    "compound": "O=C(O)c1ccc(-c2c[nH]c3ncc(-c4ccccc4)cc23)cc1C1CCCC1 + Cc1nc(Nc2ncc(C(=O)Nc3c(C)cccc3Cl)s2)cc(N2CCN(CCO)CC2)n1 [Dasatinib] (partner 0.075 µM)",
    "target under test": "LOU-NH91",
    "class name": "fulfilled"
  },
  {
    "compound": "O=C(O)c1ccc(-c2c[nH]c3ncc(-c4ccccc4)cc23)cc1C1CCCC1 + CCNC(=O)c1noc(-c2cc(C(C)C)c(O)cc2O)c1-c1ccc(CN2CCOCC2)cc1 [Luminespib] (partner 0.01 µM)",
    "target under test": "LOU-NH91",
    "class name": "fulfilled"
  }
]
